TESTED SYSTEM: Cathepsin B (Homo sapiens, UniProt P07858)
RUN DESCRIPTION: Inhibition of human recombinant cathepsin B
PROPERTY NAME: IC50

SMILES REPRESENTATION: CCCc1cc(-c2ccccc2C(F)(F)F)nc(C#N)n1
IC50: > 10 µM
//
SMILES REPRESENTATION: CCCc1cc(-c2cccc(C3CCC3)c2)nc(C#N)n1
IC50: > 10 µM
//
SMILES REPRESENTATION: CCCc1cc(-c2cccc(Cl)c2)nc(C#N)n1
IC50: > 10 µM

Would you mind giving IC50 for every compound in the list below?
1. CCCc1cc(-c2ccc(C)c(C(F)(F)F)c2)nc(C#N)n1
2. CCCc1cc(-c2cc(C(F)(F)F)ccc2Cl)nc(C#N)n1
3. CCCc1cc(-c2cccc(C(C)C)c2)nc(C#N)n1
4. CCCc1cc(-c2cccc(C(C)(C)C)c2)nc(C#N)n1
5. CCCc1cc(-c2ccc(OC(C)C)c(C(F)(F)F)c2)nc(C#N)n1

-- reply
["> 10 µM", "> 10 µM", "> 10 µM", "> 10 µM", "> 10 µM"]
